target: T1, human GCC, full length with myc tag (293-GCC#2 cells) (human, UniProt P25092 24-1073); test: indirect immunofluorescence flow cytometry, 293 GCC #2 cells;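 further: cells exposed to the test antibodies for 1 h on ice before flow cytometric readout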
T1 construct: not shown: myc tag
T1 sequence (P25092 24-1073): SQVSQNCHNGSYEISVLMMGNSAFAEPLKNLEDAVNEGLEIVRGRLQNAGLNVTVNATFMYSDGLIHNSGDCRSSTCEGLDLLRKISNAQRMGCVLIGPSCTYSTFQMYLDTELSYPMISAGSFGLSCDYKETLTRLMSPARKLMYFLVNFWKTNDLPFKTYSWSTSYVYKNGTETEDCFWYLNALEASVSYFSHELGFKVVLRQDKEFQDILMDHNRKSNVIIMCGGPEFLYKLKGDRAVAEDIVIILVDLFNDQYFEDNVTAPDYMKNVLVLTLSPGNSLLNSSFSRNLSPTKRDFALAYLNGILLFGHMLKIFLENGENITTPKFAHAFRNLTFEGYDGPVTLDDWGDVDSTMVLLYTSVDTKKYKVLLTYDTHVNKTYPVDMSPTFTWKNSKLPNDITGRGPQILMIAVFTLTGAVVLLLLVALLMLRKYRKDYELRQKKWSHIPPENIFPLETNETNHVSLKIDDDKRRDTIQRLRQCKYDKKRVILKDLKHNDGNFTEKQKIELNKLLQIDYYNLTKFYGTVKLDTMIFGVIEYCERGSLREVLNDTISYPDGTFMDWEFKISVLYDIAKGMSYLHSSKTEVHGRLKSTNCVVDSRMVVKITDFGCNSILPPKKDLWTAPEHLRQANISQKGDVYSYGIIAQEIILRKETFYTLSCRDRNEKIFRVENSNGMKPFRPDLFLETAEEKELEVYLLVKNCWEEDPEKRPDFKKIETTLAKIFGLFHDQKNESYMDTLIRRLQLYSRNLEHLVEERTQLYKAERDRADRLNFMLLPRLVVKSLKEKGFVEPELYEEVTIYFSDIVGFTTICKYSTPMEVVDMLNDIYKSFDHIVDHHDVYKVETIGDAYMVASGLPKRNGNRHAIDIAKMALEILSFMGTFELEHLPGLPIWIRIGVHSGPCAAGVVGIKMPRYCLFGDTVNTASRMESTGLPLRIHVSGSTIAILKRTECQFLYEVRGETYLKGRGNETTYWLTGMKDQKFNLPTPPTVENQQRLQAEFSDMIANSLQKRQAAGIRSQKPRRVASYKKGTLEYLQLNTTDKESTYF
TEST_READOUT: MFI at 1 µg/ml
Lab note: jot the number down without any unit.

Reported MFI at 1 µg/ml of 5F9-vc-MMAF (antibody, V domains shown, mc-vc-MMAF drug-linker on reduced interchain cysteines of the antibody; positions not given, Antibody drug conjugate of 5F9; average loading about four) VH: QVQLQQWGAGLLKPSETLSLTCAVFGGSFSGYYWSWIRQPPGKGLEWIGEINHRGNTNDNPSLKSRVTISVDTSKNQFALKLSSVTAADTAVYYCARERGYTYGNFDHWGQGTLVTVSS VL: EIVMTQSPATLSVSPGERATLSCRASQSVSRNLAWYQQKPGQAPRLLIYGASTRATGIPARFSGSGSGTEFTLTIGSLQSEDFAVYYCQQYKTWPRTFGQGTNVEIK : 7780

Reported MFI at 1 µg/ml of 5F9-vc-MMAE (antibody, V domains shown, mc-vc-MMAE drug-linker on reduced interchain cysteines of the antibody; positions not given, Antibody drug conjugate of 5F9) VH: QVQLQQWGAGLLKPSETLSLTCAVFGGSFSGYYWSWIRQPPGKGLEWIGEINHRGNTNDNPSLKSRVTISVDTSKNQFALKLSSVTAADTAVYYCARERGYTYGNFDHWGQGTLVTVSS VL: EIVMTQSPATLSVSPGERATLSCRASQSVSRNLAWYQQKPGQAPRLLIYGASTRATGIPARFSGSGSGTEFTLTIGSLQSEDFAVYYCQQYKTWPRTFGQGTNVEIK : 7420

Reported MFI at 1 µg/ml of 5F9-mc-MMAF (antibody, V domains shown, mc-MMAF drug-linker on reduced interchain cysteines of the antibody; positions not given, Antibody drug conjugate of 5F9; average loading about four) VH: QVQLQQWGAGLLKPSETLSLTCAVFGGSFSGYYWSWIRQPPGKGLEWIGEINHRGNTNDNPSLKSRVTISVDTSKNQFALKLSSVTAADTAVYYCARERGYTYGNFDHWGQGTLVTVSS VL: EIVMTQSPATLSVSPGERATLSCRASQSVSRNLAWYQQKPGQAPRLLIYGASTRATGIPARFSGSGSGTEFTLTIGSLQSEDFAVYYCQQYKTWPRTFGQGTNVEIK : 7580

Reported MFI at 1 µg/ml of mAb 5F9 (antibody, V domains shown, Human; hybridoma product is IgG2, kappa; also called 46.5F9.8.2; Prep A 5F9) VH: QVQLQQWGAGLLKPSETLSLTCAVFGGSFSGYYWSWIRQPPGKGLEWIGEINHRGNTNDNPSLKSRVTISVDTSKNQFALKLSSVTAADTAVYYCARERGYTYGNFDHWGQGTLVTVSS VL: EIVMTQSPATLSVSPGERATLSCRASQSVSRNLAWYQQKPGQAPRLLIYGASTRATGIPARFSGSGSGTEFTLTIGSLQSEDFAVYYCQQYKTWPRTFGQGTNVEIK : 8030
